Molecular target: T1, human ROR2 expressed on the cell surface (human, UniProt Q01974 34-943)
T1 construct: Endogenous ROR2 of human tumour cell lines; also called cell surface ROR2; ROR2 on tumour cell lines
T1 sequence (Q01974 34-943 limits assumed): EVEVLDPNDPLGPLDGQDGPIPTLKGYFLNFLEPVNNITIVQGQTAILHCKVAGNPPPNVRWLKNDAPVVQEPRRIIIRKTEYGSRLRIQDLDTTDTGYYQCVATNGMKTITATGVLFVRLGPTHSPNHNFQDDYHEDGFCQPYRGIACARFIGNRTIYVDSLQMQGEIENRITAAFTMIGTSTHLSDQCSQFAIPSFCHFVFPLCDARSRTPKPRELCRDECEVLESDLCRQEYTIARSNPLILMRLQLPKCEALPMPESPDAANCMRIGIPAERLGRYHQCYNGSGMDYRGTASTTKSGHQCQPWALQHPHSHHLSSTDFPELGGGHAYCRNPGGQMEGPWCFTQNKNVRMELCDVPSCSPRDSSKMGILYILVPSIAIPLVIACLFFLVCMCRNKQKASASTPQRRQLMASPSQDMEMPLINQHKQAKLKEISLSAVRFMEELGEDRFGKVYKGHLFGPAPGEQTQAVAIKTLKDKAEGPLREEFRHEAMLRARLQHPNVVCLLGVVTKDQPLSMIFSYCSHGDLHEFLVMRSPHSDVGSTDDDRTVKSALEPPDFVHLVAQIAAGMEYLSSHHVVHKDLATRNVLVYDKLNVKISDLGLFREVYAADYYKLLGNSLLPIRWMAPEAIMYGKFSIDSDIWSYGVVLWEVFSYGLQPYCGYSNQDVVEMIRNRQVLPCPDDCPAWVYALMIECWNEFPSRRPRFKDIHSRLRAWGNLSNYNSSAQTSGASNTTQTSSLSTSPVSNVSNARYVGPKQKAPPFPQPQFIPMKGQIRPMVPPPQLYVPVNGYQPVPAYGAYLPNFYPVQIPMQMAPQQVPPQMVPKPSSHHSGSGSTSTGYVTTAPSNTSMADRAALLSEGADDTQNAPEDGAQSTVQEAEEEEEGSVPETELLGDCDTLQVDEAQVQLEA
Assay: flow cytometry, HTB37-Caco2 cells (CRC)
Set-up: unit not given here
Experimental: Human tumour cell lines were authenticated using short tandem repeat (STR) analysis. They were cultured in RPMI1640 (Cellgro) supplemented with 10% fetal bovine serum (FBS, Life Technologies) at 37° C. in a 5% CO₂ humidified incubator. They were harvested, washed in PBS and reacted with ROR2-IgG at 1 ug/10⁶ tumour cells on ice for an hour. #901-IgG was used as a negative control at the same dose. […] Staining was analyzed on a FACSCalibur (BD Biosciences). […]
// label = T if binding intensity is not less than 10, otherwise F

Field: example entries. Status: answers known.
{"binder": "ROR2-241 full length human IgG1 antibody (antibody, V domains shown) VH: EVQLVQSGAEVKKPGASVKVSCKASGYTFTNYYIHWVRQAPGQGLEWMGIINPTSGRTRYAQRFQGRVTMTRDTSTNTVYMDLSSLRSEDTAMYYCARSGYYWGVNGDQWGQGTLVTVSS VL: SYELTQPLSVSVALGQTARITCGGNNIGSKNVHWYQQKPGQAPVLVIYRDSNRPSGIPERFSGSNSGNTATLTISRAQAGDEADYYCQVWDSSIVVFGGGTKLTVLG", "category label": "T"}
{"binder": "ROR2-23 full length human IgG1 antibody (antibody, V domains shown, The light chain of clone 023 is labelled kappa; also called clone #23; clone #023 IgG1) VH: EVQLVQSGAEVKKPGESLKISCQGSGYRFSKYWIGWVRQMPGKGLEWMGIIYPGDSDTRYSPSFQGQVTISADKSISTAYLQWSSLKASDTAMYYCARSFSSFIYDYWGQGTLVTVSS VL: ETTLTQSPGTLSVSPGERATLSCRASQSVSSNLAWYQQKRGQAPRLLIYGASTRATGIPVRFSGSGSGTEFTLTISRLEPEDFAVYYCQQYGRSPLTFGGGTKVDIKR", "category label": "T"}
{"binder": "ROR2-90 full length human IgG1 antibody (antibody, V domains shown, also called clone #90; antibody #90) VH: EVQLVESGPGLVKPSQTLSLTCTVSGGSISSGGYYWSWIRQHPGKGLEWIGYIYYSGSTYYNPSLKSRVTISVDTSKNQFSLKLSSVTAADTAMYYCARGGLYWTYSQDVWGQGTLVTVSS VL: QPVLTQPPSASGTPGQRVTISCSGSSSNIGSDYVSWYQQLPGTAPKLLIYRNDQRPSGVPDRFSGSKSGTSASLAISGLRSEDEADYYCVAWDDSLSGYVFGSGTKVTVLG", "category label": "T"}
{"binder": "ROR2-27 full length human IgG1 antibody (antibody, V domains shown, also called clone #27; clone #027 IgG1) VH: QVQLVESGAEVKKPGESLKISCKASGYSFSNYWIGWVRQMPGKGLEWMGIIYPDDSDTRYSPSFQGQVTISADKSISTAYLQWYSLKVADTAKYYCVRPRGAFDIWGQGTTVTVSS VL: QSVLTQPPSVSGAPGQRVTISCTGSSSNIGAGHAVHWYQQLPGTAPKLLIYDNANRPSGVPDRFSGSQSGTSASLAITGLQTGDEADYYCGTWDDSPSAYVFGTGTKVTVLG", "category label": "T"}

From here, focus on the item given below.
hey, is binding intensity for this one >= 10? ROR2-240 full length human IgG1 antibody (antibody, V domains shown, also called clone #240 IgG1) VH: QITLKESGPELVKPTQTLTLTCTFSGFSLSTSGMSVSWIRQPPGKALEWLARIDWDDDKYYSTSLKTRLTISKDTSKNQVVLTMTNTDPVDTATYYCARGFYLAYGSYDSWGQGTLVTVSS VL: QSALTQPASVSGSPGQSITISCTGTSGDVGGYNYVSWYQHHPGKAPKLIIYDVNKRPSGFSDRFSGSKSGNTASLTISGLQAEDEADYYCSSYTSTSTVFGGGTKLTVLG F
